# targetDesc: human RNA N7-MTase (hRNMT) (Homo sapiens, UniProt O43148)
# Sequence (O43148 whole entry): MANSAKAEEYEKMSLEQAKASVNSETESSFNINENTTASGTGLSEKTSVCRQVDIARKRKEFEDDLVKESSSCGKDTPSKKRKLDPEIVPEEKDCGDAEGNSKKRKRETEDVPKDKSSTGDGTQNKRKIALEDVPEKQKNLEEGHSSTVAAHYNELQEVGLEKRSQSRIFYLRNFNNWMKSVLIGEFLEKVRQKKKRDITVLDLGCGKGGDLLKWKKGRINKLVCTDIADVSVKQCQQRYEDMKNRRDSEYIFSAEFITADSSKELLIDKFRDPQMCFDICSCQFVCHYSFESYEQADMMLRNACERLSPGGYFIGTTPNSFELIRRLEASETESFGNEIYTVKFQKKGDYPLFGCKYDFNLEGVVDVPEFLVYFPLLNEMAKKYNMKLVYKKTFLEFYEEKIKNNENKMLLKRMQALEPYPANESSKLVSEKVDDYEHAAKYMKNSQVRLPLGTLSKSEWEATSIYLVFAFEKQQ
# runDescription: biochemical
# Assay type: biochemical
# studyConditions: read-out: % of inhibition at 50 μM, hRNMT

{"compound": "N#CC1=C(N)OC2=C(c3sc(=S)n(-c4ccccc4)c3CC2)C1c1ccccc1 (stereo not drawn) [Compound 23a]", "inhibition at 50 µM (%)": 42.7}
{"compound": "CCOC(=O)c1c(N)sc2c1CCC1=C2C(c2ccc(OC)cc2)C(C#N)=C(N)O1 (stereo not drawn)", "inhibition at 50 µM (%)": 62.5}
{"compound": "CCOC(=O)c1c(N)sc2c1CCc1c-2sc(=S)n1-c1ccccc1 [Compound 21b]", "inhibition at 50 µM (%)": 88.2}
{"compound": "CCOC(=O)C1=C(N)OC2=C(c3sc(=S)n(-c4ccccc4)c3CC2)C1c1ccc(Cl)cc1 (stereo not drawn) [Compound 23d]", "inhibition at 50 µM (%)": 68.6}
{"compound": "N#CC1=C(N)OC2=C(C=C(c3c(N)nn(-c4ccccc4)c3N)CC2)C1c1ccccc1Cl (stereo not drawn)", "inhibition at 50 µM (%)": 90.3}
{"compound": "N#Cc1c(N)sc2c1CCc1c-2sc(=S)n1-c1ccccc1 [Compound 21a]", "inhibition at 50 µM (%)": 60.3}
{"compound": "N#CC1=C(N)OC2=C(CC(=O)CC2)C1c1ccccc1 (stereo not drawn)", "inhibition at 50 µM (%)": 92.3}
{"compound": "N#CC1=C(N)OC2=C(c3sc(N)c(C#N)c3CC2)C1c1ccccc1 (stereo not drawn)", "inhibition at 50 µM (%)": 80.3}
{"compound": "COc1ccc(C2C(C#N)=C(N)OC3=C2CC(=O)CC3)cc1 (stereo not drawn)", "inhibition at 50 µM (%)": 51.7}
{"compound": "CCOC(=O)CSC(Nc1ccccc1)=C1C(=O)CCC2=C1C(c1ccccc1Cl)C(C#N)=C(N)O2 (stereo not drawn)", "inhibition at 50 µM (%)": 90.3}
{"compound": "N#CC1=C(N)OC2=C(c3sc(=S)n(-c4ccccc4)c3CC2)C1c1ccc(Cl)cc1 (stereo not drawn) [Compound 23b]", "inhibition at 50 µM (%)": 96.4}
{"compound": "N#CC1=C(N)OC2=C(C=C(c3c(N)n[nH]c3N)CC2)C1c1ccccc1Cl (stereo not drawn)", "inhibition at 50 µM (%)": 93.6}
{"compound": "CCOC1C(C#N)=C(O)OC2=C1c1sc(=S)n(-c3ccccc3)c1CC2 (stereo not drawn) [Compound 20b]", "inhibition at 50 µM (%)": 39.5}
{"compound": "CCOC1C(C#N)=C(N)OC2=C1c1sc(=S)n(-c3ccccc3)c1CC2 (stereo not drawn) [Compound 20a]", "inhibition at 50 µM (%)": 70.4}
{"compound": "COc1ccc(C2C(C#N)=C(N)OC3=C2c2sc(N)c(C#N)c2CC3)cc1 (stereo not drawn)", "inhibition at 50 µM (%)": 92.2}
{"compound": "CC1=CSC(=C2C(=O)CCC3=C2C(c2ccccc2Cl)C(C#N)=C(N)O3)N1c1ccccc1 (stereo not drawn)", "inhibition at 50 µM (%)": 87.3}
{"compound": "CCOC(=O)c1c(N)sc2c1CCC1=C2C(c2ccccc2)C(C#N)=C(N)O1 (stereo not drawn)", "inhibition at 50 µM (%)": 40.3}
{"compound": "N#CC1=C(N)OC2=C(CC(=O)CC2)C1c1ccccc1Cl (stereo not drawn)", "inhibition at 50 µM (%)": 94.6}
{"compound": "CCOC(=O)c1c(N)sc2c1CCC1=C2C(c2ccccc2Cl)C(C#N)=C(N)O1 (stereo not drawn)", "inhibition at 50 µM (%)": 80.2}
{"compound": "CCOC(=O)C1=C(N)OC2=C(c3sc(=S)n(-c4ccccc4)c3CC2)C1c1ccccc1 (stereo not drawn) [Compound 23c]", "inhibition at 50 µM (%)": 59.3}
{"compound": "O=C1CCc2c(sc(=S)n2-c2ccccc2)C1", "inhibition at 50 µM (%)": 65.5}

Ref: paper PMC8370666
